target: Pin1 (GST-Pin1) (Homo sapiens); test: Fluorescence polarization (FP) assay, binding to Pin1; conditions: competition with fluorescein-labeled peptide probe; 12 hours pre-incubation at 4° C.; Kenakin Ki equation; read-out: Ki, μM (FP Assay)
Sequence (Q13526 whole entry): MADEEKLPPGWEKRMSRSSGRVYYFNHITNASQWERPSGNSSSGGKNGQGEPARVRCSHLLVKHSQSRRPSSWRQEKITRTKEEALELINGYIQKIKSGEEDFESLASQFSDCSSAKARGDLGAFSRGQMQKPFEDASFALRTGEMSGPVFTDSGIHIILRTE
Non-standard residues stand in square brackets, D forms with d. Residues, ends and D or L forms follow the SMILES beside them. *: point of attachment. Bpa = N[C@@H](Cc1ccc(C(=O)c2ccccc2)cc1)C(=O)O; Phe(4-F) = N[C@@H](Cc1ccc(F)cc1)C(=O)O; 2Nal = N[C@@H](Cc1ccc2ccccc2c1)C(=O)O; Met(O2) = CS(=O)(=O)CC[C@H](N)C(=O)O; NH(4-Me-benzyl) = Cc1ccc(CN*)cc1; Cit = NC(=O)NCCC[C@H](N)C(=O)O; Pip = O=C(O)[C@@H]1CCCCN1; 2Abz = Nc1ccccc1C(=O)O; X5 = Cc1ccc(CN(C)*)cc1; ClAc = O=C(CCl)*; X1 = O=C(C1CO1)*
measuredMetric: Ki

[
  {
    "compound": "COC(=O)CC[C@H](NC(=O)C1CO1)C(=O)N1CCCC[C@H]1C(=O)N[C@@H](Cc1c[nH]c2ccccc12)C(=O)N[C@@H](CCCNC(N)=O)C(=O)NCc1ccc(C)cc1 (stereo partly drawn) [Compound 11-12] (X1-E(OMe)[Pip]W[Cit]-{NH(4-Me-benzyl)})",
    "experimentalTarget": "Pin1 (GST-Pin1) (Homo sapiens)",
    "measuredMetric": "Ki",
    "reported": "> 10 µM"
  },
  {
    "compound": "CS(=O)(=O)CC[C@H](NC(=O)CCl)C(=O)N1CCCC[C@H]1C(=O)N[C@@H](Cc1ccc2ccccc2c1)C(=O)N[C@@H](CCC(N)=O)C(N)=O [Compound 2-3] (ClAc-[Met(O2)][Pip][2Nal]Q-NH2)",
    "experimentalTarget": "Pin1 (GST-Pin1) (Homo sapiens)",
    "measuredMetric": "Ki",
    "reported": "> 10 µM"
  },
  {
    "compound": "CC(=O)N[C@@H](Cc1ccccc1)C(=O)N1CCCC[C@H]1C(=O)N[C@@H](Cc1c[nH]c2ccccc12)C(=O)N[C@@H](CCCNC(N)=O)C(=O)NCc1ccc(C)cc1 [Compound 11-36] (Ac-F[Pip]W[Cit]-{NH(4-Me-benzyl)})",
    "experimentalTarget": "Pin1 (GST-Pin1) (Homo sapiens)",
    "measuredMetric": "Ki",
    "reported": "> 10 µM"
  },
  {
    "compound": "NC(=O)NCCC[C@H](NC(=O)[C@H](Cc1ccc2ccccc2c1)NC(=O)c1ccccc1NC(=O)[C@H](CCC(=O)O)NC(=O)CCl)C(N)=O [Compound 2-16] (ClAc-E[2Abz][2Nal][Cit]-NH2)",
    "experimentalTarget": "Pin1 (GST-Pin1) (Homo sapiens)",
    "measuredMetric": "Ki",
    "reported": "> 10 µM"
  },
  {
    "compound": "Cc1ccc(CNC(=O)[C@H](Cc2ccc(F)cc2)NC(=O)[C@H](Cc2c[nH]c3ccccc23)NC(=O)[C@@H]2CCCCN2C(=O)[C@H](CCC(=O)O)NC(=O)CCl)cc1 [Compound 11-5] (ClAc-E[Pip]W[Phe(4-F)]-{NH(4-Me-benzyl)})",
    "experimentalTarget": "Pin1 (GST-Pin1) (Homo sapiens)",
    "measuredMetric": "Ki",
    "reported": "0.13 µM"
  },
  {
    "compound": "Cc1ccc(CN(C)C(=O)[C@H](CCCNC(N)=O)NC(=O)[C@H](Cc2c[nH]c3ccccc23)NC(=O)[C@@H]2CCCCN2C(=O)[C@H](CCC(=O)O)NC(=O)CCl)cc1 [Compound 11-9] (ClAc-E[Pip]W[Cit]-X5)",
    "experimentalTarget": "Pin1 (GST-Pin1) (Homo sapiens)",
    "measuredMetric": "Ki",
    "reported": "0.31 µM"
  },
  {
    "compound": "NC(=O)NCCC[C@H](NC(=O)[C@H](Cc1ccc2ccccc2c1)NC(=O)[C@@H]1CCCCN1C(=O)[C@H](CCC(=O)O)NC(=O)C1CO1)C(N)=O (stereo partly drawn) [Compound 3b-1] (X1-E[Pip][2Nal][Cit]-NH2)",
    "experimentalTarget": "Pin1 (GST-Pin1) (Homo sapiens)",
    "measuredMetric": "Ki",
    "reported": "1.61 µM"
  },
  {
    "compound": "COC(=O)CC[C@H](NC(=O)CCl)C(=O)N1CCCC[C@H]1C(=O)N[C@@H](Cc1c[nH]c2ccccc12)C(=O)N[C@@H](Cc1ccc(O)cc1)C(=O)NCc1ccc(C)cc1 (single isomer, unassigned) [Compound 11-26]",
    "experimentalTarget": "Pin1 (GST-Pin1) (Homo sapiens)",
    "measuredMetric": "Ki",
    "reported": "> 10 µM"
  },
  {
    "compound": "NC(=O)NCCC[C@H](NC(=O)[C@H](Cc1ccc(C(=O)c2ccccc2)cc1)NC(=O)[C@@H]1CCCCN1C(=O)[C@H](CCC(=O)O)NC(=O)CCl)C(N)=O [Compound 2-17] (ClAc-E[Pip][Bpa][Cit]-NH2)",
    "experimentalTarget": "Pin1 (GST-Pin1) (Homo sapiens)",
    "measuredMetric": "Ki",
    "reported": "0.11 µM"
  }
]
